test: clinical; settings: human, in vivo, iv, 320 mg/m2
Measure: Cmax (µg/mL)
Please respond with the number in µg/mL and leave the unit unwritten.

[
  {
    "Compound": "CC(=O)O[C@@]12CO[C@@H]1C[C@H](O)[C@@]1(C)C(=O)[C@H](O)C3=C(C)[C@@H](OC(=O)[C@H](OC(=O)CN4CCN(C)CC4)[C@@H](NC(=O)OC(C)(C)C)c4ccccc4)C[C@@](O)([C@@H](OC(=O)c4ccccc4)[C@H]21)C3(C)C [TD-1]",
    "Readout number": 205
  }
]

In: Given CC(=O)O[C@@]12CO[C@@H]1C[C@H](O)[C@@]1(C)C(=O)[C@H](O)C3=C(C)[C@@H](OC(=O)[C@H](O)[C@@H](NC(=O)OC(C)(C)C)c4ccccc4)C[C@@](O)([C@@H](OC(=O)c4ccccc4)[C@H]21)C3(C)C [Docetaxel, docetaxel] , state its recorded Cmax.
Out: 1.74

====

Reported AUC(0-inf) is given for each of the following compounds.
experiment: clinical; details: human, in vivo, iv, 270 mg/m2
Please respond with the number in µg·h/mL and leave the unit unwritten.

[
  {
    "Structure smiles": "CC(=O)O[C@@]12CO[C@@H]1C[C@H](O)[C@@]1(C)C(=O)[C@H](O)C3=C(C)[C@@H](OC(=O)[C@H](OC(=O)CN4CCN(C)CC4)[C@@H](NC(=O)OC(C)(C)C)c4ccccc4)C[C@@](O)([C@@H](OC(=O)c4ccccc4)[C@H]21)C3(C)C",
    "AUC(0-inf) / µg·h/mL": 8370
  }
]

Shifting focus to the compound that follows.
In: Given `CC(=O)O[C@@]12CO[C@@H]1C[C@H](O)[C@@]1(C)C(=O)[C@H](O)C3=C(C)[C@@H](OC(=O)[C@H](O)[C@@H](NC(=O)OC(C)(C)C)c4ccccc4)C[C@@](O)([C@@H](OC(=O)c4ccccc4)[C@H]21)C3(C)C` , state its recorded AUC(0-inf).
Out: 26.2

====

experiment: clinical; conditions: human, in vivo, iv, 160 mg/m2
Measure: AUC(0-inf) (µg·h/mL)
Please respond with the number in µg·h/mL and leave the unit unwritten.

In: Given CC(=O)O[C@@]12CO[C@@H]1C[C@H](O)[C@@]1(C)C(=O)[C@H](O)C3=C(C)[C@@H](OC(=O)[C@H](OC(=O)CN4CCN(C)CC4)[C@@H](NC(=O)OC(C)(C)C)c4ccccc4)C[C@@](O)([C@@H](OC(=O)c4ccccc4)[C@H]21)C3(C)C [TD-1] , state its recorded AUC(0-inf).
Out: 9440

====

test: clinical; details: human, in vivo, iv, 12 mg/m2
Measure: Cmax (ng/mL)
Please respond with the number in ng/mL and leave the unit unwritten.

[
  {
    "Structure smiles": "CC(=O)O[C@@]12CO[C@@H]1C[C@H](O)[C@@]1(C)C(=O)[C@H](O)C3=C(C)[C@@H](OC(=O)[C@H](OC(=O)CN4CCN(C)CC4)[C@@H](NC(=O)OC(C)(C)C)c4ccccc4)C[C@@](O)([C@@H](OC(=O)c4ccccc4)[C@H]21)C3(C)C",
    "Cmax, ng/mL": 6480
  }
]

In: Given `CC(=O)O[C@@]12CO[C@@H]1C[C@H](O)[C@@]1(C)C(=O)[C@H](O)C3=C(C)[C@@H](OC(=O)[C@H](O)[C@@H](NC(=O)OC(C)(C)C)c4ccccc4)C[C@@](O)([C@@H](OC(=O)c4ccccc4)[C@H]21)C3(C)C` , state its recorded Cmax.
Out: 74.7
